Tested on: Escherichia coli TOP10;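 further: peptides expressed intracellularly from a pBAD plasmid library in pooled LB shake-flask culture, induced with 0.3% L-arabinose, DNA abundance read by NGS, three biological replicates, DESeq2 with apeglm shrinkage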
Assay: shrunken log2 fold change of peptide-encoding DNA abundance (4.5 h post-induction vs induction); higher = less antimicrobial activity (less host growth inhibition)
Conditions: time post-induction: 4.5 h; library: site-saturation at positions 5, 18, 19, 20
Classes are defined on shrunken log2 fold change with ranges category 1: < -0.07; category 2: ≥ -0.07 and < 0.1; category 3: ≥ 0.1

Use these answered entries as a reference point.
INSERT INTO assay_data (biosequence, assigned_class) VALUES
  ('RRIRLRPPRLPRPRPRPLNTPRP', 'category 1'),
  ('RRIRRRPPRLPRPRPRPKSWPRP', 'category 3');

q: Into which category would you place RRIRRRPPRLPRPRPRPWQEPRP ?
a: category 2
